Just for reference, patent US8853424B2 is where these values come from.

- System: transglutaminase (TGase)
- assayNotes: Measurement of TG (TGase inhibitory activity, monodansyl cadaverine / N,N-dimethylcasein fluorescence, FDSS 3000)
- Format: biochemical
- measurementSetup: TGase inhibitory activity value, Table 1
Please note: TGase activity remaining (% of DMSO control = 100) exactly at 90 is Not satisfied. Only values below 90 get Satisfied.

Some entries whose results are on file:
1. O=C1O[B-](c2ccccc2)(c2ccccc2)[NH2+]C1CO (stereo not shown) [Example 255, diphenyl(serinate-O,N)borane] :: Not satisfied
2. CC(O)C(N)C(=O)OB(c1ccccc1)c1ccccc1 (stereo not shown) [Example 265, diphenyl(threoninate-O,N)borane] :: Not satisfied
3. OB(c1ccc(C(F)(F)F)cc1)c1c2ccccc2c(B(O)c2ccc(C(F)(F)F)cc2)c2ccccc12 [Example 374] :: Satisfied
4. NC(c1ccccc1)C(OB(c1ccccc1)c1ccccc1)c1ccccc1 (stereo not shown) [Example 224] :: Not satisfied
5. OB(c1ccccc1)c1ccc(-c2ccc(B(O)c3ccccc3)cc2)cc1 [Example 140, 4,4′-phenylhydroxyboryl 4-biphenyl] :: Satisfied

Here is another molecule to look at.
Exam item: # check: TGase activity remaining (% of DMSO control = 100) < 90 for NCCNCCOB(c1ccc(COCc2ccc(B(OCCNCCN)c3ccc(F)c(F)c3)cc2)cc1)c1ccc(F)c(F)c1 [Example 419]
Marked response: Not satisfied

----------
- Test system: transglutaminase (TGase)
- assayNotes: Measurement of TG (TGase inhibitory activity, monodansyl cadaverine / N,N-dimethylcasein fluorescence, FDSS 3000)
- Assay type: biochemical
- measurementSetup: TGase activity with compound (10 mM, 1 μL in 0.1 ml enzyme reaction solution); DMSO control taken as 100
metricName: TGase activity remaining (% of DMSO control = 100)
Give the figure by itself; no unit, no explanation.

Known TGase activity remaining (% of DMSO control = 100) results, listed for orientation:
1. OB(c1ccc(F)cc1)c1ccc(COCc2ccc(B(O)c3ccc(F)cc3)cc2)cc1 :: 88
2. NCCOB(c1ccccc1)c1ccccc1B(OCCN)c1ccccc1 :: 101
3. Cc1cc(B(OCCN)c2ccccc2)cc(B(OCCN)c2ccccc2)c1 :: 89
4. NCC(OB(c1ccccc1)c1cccc(COCc2cccc(B(OC(CN)c3ccccc3)c3ccccc3)c2)c1)c1ccccc1 (centres unmarked) :: 35

Exam item: Supply recorded TGase activity remaining (% of DMSO control = 100) for NCCOB(c1ccc(C(F)(F)F)cc1)c1c2ccccc2c(B(OCCN)c2ccc(C(F)(F)F)cc2)c2ccccc12 here.
Marked response: 44

Exam item: Indicate its recorded TGase activity remaining (% of DMSO control = 100); the molecule in question is Fc1cc(B(OCCNc2ccccc2)c2ccc(Cl)c(F)c2)ccc1Cl
Marked response: 88

Exam item: Identify TGase activity remaining (% of DMSO control = 100) associated with the molecule CCCCC(N)C(=O)OB(c1ccc(C)c(Cl)c1)c1ccc(C)c(Cl)c1 (centres unmarked) [Example 227]
Marked response: 110

Exam item: Please give measured TGase activity remaining (% of DMSO control = 100) of the following entry: OB(c1ccccc1)c1cccc(B(O)c2ccccc2)c1 [Example 119, 1,3-bis(phenylhydroxyboryl)benzene]
Marked response: 101

Exam item: Please report the measured TGase activity remaining (% of DMSO control = 100) for CCCCNCCOB(c1ccc(C)c(Cl)c1)c1ccc(C)c(Cl)c1
Marked response: 27

Exam item: Indicate its recorded TGase activity remaining (% of DMSO control = 100); the molecule in question is NCC(=O)OB(c1ccccc1)c1ccccc1 [Example 254, diphenyl(glycinate-O,N)borane]
Marked response: 101

Exam item: For the molecule NC(=O)CC(N)C(=O)OB(c1ccccc1)c1cccc(COCc2cccc(B(OC(=O)C(N)CC(N)=O)c3ccccc3)c2)c1 (centres unmarked) [Example 474] , give its measured TGase activity remaining (% of DMSO control = 100) value.
Marked response: 145

Exam item: Give the reported TGase activity remaining (% of DMSO control = 100) for this molecule. Nc1ccccc1C(=O)OB(c1ccccc1)c1ccccc1
Marked response: 91

Exam item: Tell me TGase activity remaining (% of DMSO control = 100) reported for c1ccc(B2OCCN3CCN(CCOB(c4ccccc4)c4cccc(c4)COCc4cccc2c4)CC3)cc1
Marked response: 122

Exam item: Note down TGase activity remaining (% of DMSO control = 100) recorded for COc1ccc(B(OCCN(C)C)c2ccc(COCc3ccc(B(OCCN(C)C)c4ccc(OC)cc4)cc3)cc2)cc1
Marked response: 128

Exam item: Provide one value: measured TGase activity remaining (% of DMSO control = 100) of c1ccc(B(OCC2CCCN2)c2ccc(Oc3ccc(B(OCC4CCCN4)c4ccccc4)cc3)cc2)cc1 (centres unmarked)
Marked response: 29

Exam item: Please report the measured TGase activity remaining (% of DMSO control = 100) for Cc1cc(B(O)c2ccccc2)ccc1B(O)c1ccccc1 [Example 358, 2,5-di(phenylhydroxyboryl)toluene]
Marked response: 112

Exam item: State its TGase activity remaining (% of DMSO control = 100) for this molecule: O=C(OB(c1ccccc1)c1ccccc1)C1CCCN1 (centres unmarked) [Example 277, diphenyl(prolinate-O,N)borane]
Marked response: 105

Exam item: Specify measured TGase activity remaining (% of DMSO control = 100) for NC(=O)CCC(N)C(=O)OB(c1ccccc1)c1ccc(Oc2ccc(B(OC(=O)C(N)CCC(N)=O)c3ccc(CO)cc3)cc2)cc1 (centres unmarked) .
Marked response: 41

Exam item: Indicate the recorded TGase activity remaining (% of DMSO control = 100) value for this molecule: N#Cc1ccc(B(OCCN)c2ccc(C#N)cc2)cc1 [Example 103, aminoethyl bis(4-cyanophenyl)borinate]
Marked response: 114

Exam item: Specify measured TGase activity remaining (% of DMSO control = 100) for c1ccc(CNCCOB(c2ccccc2)c2cccc(COCc3cccc(B(OCCNCc4ccccc4)c4ccccc4)c3)c2)cc1 .
Marked response: 3
